Molecular target: T1, EsCas13d, nuclease-dead (Eubacterium siraeum, UniProt B0MS50, R295A;H300A;R849A;H854A)
T1 sequence: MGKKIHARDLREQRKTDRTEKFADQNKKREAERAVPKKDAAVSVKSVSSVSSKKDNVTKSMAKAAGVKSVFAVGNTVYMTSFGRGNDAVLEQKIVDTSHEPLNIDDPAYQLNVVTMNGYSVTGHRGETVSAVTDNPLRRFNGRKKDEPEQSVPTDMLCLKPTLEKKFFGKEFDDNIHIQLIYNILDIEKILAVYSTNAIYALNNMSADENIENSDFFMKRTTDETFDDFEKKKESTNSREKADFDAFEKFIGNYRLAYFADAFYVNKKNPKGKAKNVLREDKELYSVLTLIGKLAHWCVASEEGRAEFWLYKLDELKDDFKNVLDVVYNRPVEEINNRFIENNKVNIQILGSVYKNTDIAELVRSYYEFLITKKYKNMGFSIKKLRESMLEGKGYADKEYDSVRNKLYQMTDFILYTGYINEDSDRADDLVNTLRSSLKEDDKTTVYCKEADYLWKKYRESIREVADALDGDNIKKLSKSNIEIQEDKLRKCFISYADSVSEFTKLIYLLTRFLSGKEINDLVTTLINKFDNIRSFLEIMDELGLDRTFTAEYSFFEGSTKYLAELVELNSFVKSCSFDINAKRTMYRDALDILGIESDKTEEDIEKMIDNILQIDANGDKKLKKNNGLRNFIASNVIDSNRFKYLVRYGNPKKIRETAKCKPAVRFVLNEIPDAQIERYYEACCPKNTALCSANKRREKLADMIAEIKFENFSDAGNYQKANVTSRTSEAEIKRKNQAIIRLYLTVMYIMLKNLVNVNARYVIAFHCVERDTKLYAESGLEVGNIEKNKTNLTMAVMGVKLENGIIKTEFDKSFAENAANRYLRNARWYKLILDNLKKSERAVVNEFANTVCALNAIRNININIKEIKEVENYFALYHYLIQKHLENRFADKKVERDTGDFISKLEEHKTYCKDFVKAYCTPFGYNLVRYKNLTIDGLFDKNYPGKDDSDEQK
Assay: crRNA (strand 1, pre-loaded); Mg2+; 40 mM Tris-HCl pH 7.5, 150 mM NaCl, 6 mM MgCl2, 1 mM DTT, 0.1% Tween-20, 0.2 mg/ml BSA; 25 C; 10 min per concentration, then washed
Conditions: tags: His6-TwinStrep-SUMO cleaved; N-terminal SNAP kept (SNAP-Surface 488); label: 3' end held by stalled T7 RNA polymerase
Kd overview
reported.property: Kd (nM)

binder	recorded.number
target 1 insA 3' of 15,insG 3' of 1 (mixed) RNA 1: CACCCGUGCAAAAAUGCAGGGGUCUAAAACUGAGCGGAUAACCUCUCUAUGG RNA 2: GGGAAUGGAUCCACAUCUACGAAUUCGUACCAUAGAGAAGGUUAUCCGCUCAGCCGAGAUCGGAAGAGCACACGU	5.96
target 1 C7U,A16U (mixed) RNA 1: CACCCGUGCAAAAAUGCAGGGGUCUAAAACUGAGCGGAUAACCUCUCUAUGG RNA 2: GGGAAUGGAUCCACAUCUACGAAUUCGUACCAUAGUGAGGUUAUUCGCUCACCGAGAUCGGAAGAGCACACGU	46
target 3 insC 3' of 4,insA 3' of 3 (mixed) RNA 1: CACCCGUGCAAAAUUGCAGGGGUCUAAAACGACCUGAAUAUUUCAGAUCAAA RNA 2: GGGAAUGGAUCCACAUCUACGAAUUCGUUUUUGAUCUGAAAUAUUCAGCGAUCUGCAGAUCGGAAGAGCACACGU	34
target 3 C6A,U7A (mixed) RNA 1: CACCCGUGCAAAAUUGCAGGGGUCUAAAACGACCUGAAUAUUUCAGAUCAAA RNA 2: GGGAAUGGAUCCACAUCUACGAAUUCGUUUUUGAUCUGAAAUAUAAAGGUCUGCAGAUCGGAAGAGCACACGU	46.5
